Test system: E. coli mL308 225
Experiment: In Vitro Anti-Bacterial Activity Assay (MIC), gram negative
Type: cell-based
Details: Escherichia coli, ML308225, 18 h, gram negative bacteria; read-out: Antibiotic Activity Gram − (MIC)
Catalogue of MIC readings, one per entry.

Examples from the recorded data:
compound	measurement-kind	reported-value
CN(C)CCNC(=O)c1ccc(-c2ccc(O)c3c2C[C@H]2C[C@H]4[C@H](N(C)C)C(O)=C(C(N)=O)C(=O)[C@@]4(O)C(O)=C2C3=O)cc1	MIC	> 4 µg/mL
C[C@H]1c2ccc(CN3CCC4(CC3)OCCO4)c(O)c2C(=O)C2=C(O)[C@]3(O)C(=O)C(C(N)=O)=C(O)[C@@H](N(C)C)[C@@H]3[C@@H](O)[C@@H]21	MIC	< 4 µg/mL
CN(C)c1cc(CNCc2ccc(F)cc2)c(O)c2c1C[C@H]1C[C@H]3[C@H](N(C)C)C(O)=C(C(N)=O)C(=O)[C@@]3(O)C(O)=C1C2=O	MIC	< 4 µg/mL

Look at this compound and give its reported MIC. CN(C)[C@@H]1C(O)=C(C(N)=O)C(=O)[C@@]2(O)C(O)=C3C(=O)c4c(O)ccc(C#CCCC#Cc5ccc(O)c6c5C[C@@]5(C)C[C@@]7(C)[C@H](N(C)C)C(O)C(C(N)=O)C(=O)[C@@]7(O)C(O)=C5C6=O)c4C[C@@]3(C)C[C@@]12C (some centres unmarked) > 4 µg/mL

Would you mind telling me what MIC value was observed for CN(C)[C@@H]1C(OCc2ccccc2)=C(C(N)=O)C(=O)[C@@]2(O)C(O)=C3C(=O)c4c(O)cccc4C[C@H]3C[C@@H]12 ? > 4 µg/mL

Item CCCCOc1cccc2c1C(=O)C1=C(O)[C@]3(O)C(=O)C(C(N)=O)=C(O)[C@@H](N(C)C)[C@@H]3[C@@H](O)[C@@H]1[C@H]2C has what recorded MIC? > 4 µg/mL

Can you share its MIC? I mean this compound: CN(C)c1cc(CN2CCOCC2)c(O)c2c1C[C@H]1C[C@H]3[C@H](N(C)C)C(O)=C(C(N)=O)C(=O)[C@@]3(O)C(O)=C1C2=O > 4 µg/mL

Record request: MIC value, item CN(C)[C@@H]1C(O)=C(C(N)=O)C(=O)[C@@]2(O)C(O)=C3C(=O)c4c(O)ccc(-c5ccc(CNc6cccnc6)cc5)c4C[C@H]3C[C@@H]12 > 4 µg/mL

Reported MIC for CN(C)[C@@H]1C(O)=C(C(N)=O)C(=O)[C@@]2(O)C(O)=C3C(=O)c4c(O)ccc(-c5ccc(F)c(C=O)c5)c4C[C@H]3C[C@@H]12 : what is it? < 4 µg/mL

Which MIC is reported for this compound? CCCN(CCC)Cc1ccc(-c2ccc(O)c3c2C[C@H]2C[C@H]4[C@H](N(C)C)C(O)=C(C(N)=O)C(=O)[C@@]4(O)C(O)=C2C3=O)c2ccccc12 < 4 µg/mL

Find the recorded MIC belonging to CN(C)[C@@H]1C(O)=C(C(N)=O)C(=O)[C@@]2(O)C(O)=C3C(=O)c4c(O)ccc(-c5ccc6c(c5)OCO6)c4C[C@H]3C[C@@H]12 [drawing 3479] and report it. < 4 µg/mL

* * *

Form field: MIC (one value per entry).
System: E. coli mL308 225
Assay: In Vitro Anti-Bacterial Activity Assay (MIC), gram negative
Type: cell-based
Conditions: Escherichia coli, ML308225, 18 h, gram negative bacteria; read-out: Antibiotic Activity Gram − (MIC)

# example entries with known answers
1. CC1CCN(Cc2cc(N(C)C)c3c(c2O)C(=O)C2=C(O)[C@]4(O)C(=O)C(C(N)=O)=C(O)[C@@H](N(C)C)[C@@H]4C[C@@H]2C3)CC1 < 4 µg/mL
2. CN(C)c1cc(CNC(=O)CC(F)(F)F)c(O)c2c1C[C@H]1C[C@H]3[C@H](N(C)C)C(O)=C(C(N)=O)C(=O)[C@@]3(O)C(O)=C1C2=O < 4 µg/mL
3. CN(C)[C@@H]1C(O)=C(C(N)=O)C(=O)[C@@]2(O)C(O)=C3C(=O)c4c(O)ccc(CN5CCOCC5)c4C[C@H]3C[C@@H]12 > 4 µg/mL
4. COC1CCN(Cc2cc(N(C)C)c3c(c2O)C(=O)C2=C(O)[C@]4(O)C(=O)C(C(N)=O)=C(O)[C@@H](N(C)C)[C@@H]4C[C@@H]2C3)CC1 < 4 µg/mL
5. CN(C)c1cc(CNC(N)=O)c(O)c2c1C[C@H]1C[C@H]3[C@H](N(C)C)C(O)=C(C(N)=O)C(=O)[C@@]3(O)C(O)=C1C2=O > 4 µg/mL

Field: next molecule
Value lookup for MIC; key = C[C@H]1c2ccc(-c3ccc(N(C)C)cc3)c(O)c2C(=O)C2=C(O)[C@]3(O)C(=O)C(C(N)=O)=C(O)[C@@H](N(C)C)[C@@H]3[C@@H](O)[C@@H]21 < 4 µg/mL

From: patent US20150141381A1
